Item-by-item account of TGI
Test system: UO-31 renal
Assay: NCI tumour cell line growth inhibition, 48 h

compound | assay_endpoint | measured
NC12Oc3cc(O)cc(O)c3C1(c1ccc(Cl)cc1)c1c(O)cc(O)cc1O2 (configuration not stated) | TGI | > 100 µM
COc1cc(-c2nn(-c3cccc(NC(=O)Nc4ccc(Cl)c(Cl)c4)c3)cc2-c2ccncc2)ccc1Cl | TGI | 4.96 µM
O=[N+]([O-])c1cc2c(c3nonc13)OCCCCO2 | TGI | 19.7 µM
COc1cc(C2c3cc4c(cc3C(O)C(CO)C2CO)OCO4)cc(OC)c1OC (configuration not stated) | TGI | > 100 µM
COc1ccc(C(=O)/C=C/c2ccncc2)cc1OC | TGI | 28.1 µM

TGI of CC[C@@]12N=C(N(C)C)C[C@]1(O)ON=C2C , assay on UO-31 renal, is > 100 µM

TGI of Cc1cn2c(/C=C3\C(=O)Nc4ccc(O)cc43)c(-c3ccc(Cl)cc3)nc2s1 , assay on UO-31 renal, is 59.9 µM

TGI of O=C(CCc1cc(O)cc(O)c1)NCCc1cc(O)cc(O)c1 , assay on UO-31 renal, is > 100 µM

TGI of O=C1[C@@H]2C3c4ccccc4C([C@@H]2C(=O)N1c1ccccc1)S3(=O)=O , assay on UO-31 renal, is > 100 µM

TGI of CN1C(=O)C(CC=O)(C(C)(C)C)c2ccccc21 (configuration not stated) , assay on UO-31 renal, is > 100 µM

TGI of C[C@@H]1CCC2[C@@H](C)[C@@H](OCCO[C@H]3OC4O[C@@]5(C)CCC6[C@H](C)CCC([C@H]3C)[C@@]46OO5)OC3O[C@@]4(C)CCC1[C@]32OO4 (some centres not stated) , assay on UO-31 renal, is > 100 µM

###

Item-by-item account of TGI
System: NCI-H460 lung
Test: NCI tumour cell line growth inhibition, 48 h

// below: answered molecules
molecule | assay_endpoint | measured
NC12Oc3cc(O)cc(O)c3C1(c1ccc(Cl)cc1)c1c(O)cc(O)cc1O2 (centres undefined) | TGI | > 100 µM
CC(CCC#N)(CCC#N)C(=O)CC(O)(C(F)(F)F)C(F)(F)F | TGI | 39 µM
C[C@H]1NC(=O)C2CCCCN2C(=O)CN(C)C(=O)CNC(=O)C2CCCCN2C(=O)[C@@H](NC(=O)c2nc3ccccc3cc2O)[C@@H](C)NC(=O)C2CCCCN2C(=O)CN(C)C(=O)CNC(=O)[C@@H]2CCCCN2C(=O)C1NC(=O)c1nc2ccccc2cc1O (some centres undefined) | TGI | > 100 µM

Then this molecule:
The reported TGI of the molecule COc1cc(C2SCC(=O)N2c2ccc(Cl)c(Cl)c2)cc(OC)c1OC (centres undefined) was > 100 µM

###

Test system: SNB-19 CNS
Assay: NCI tumour cell line growth inhibition, 48 h
assay_endpoint: GI50

// below: answered molecules
chemical_smiles | assayed_system | GI50
CCCCCCC[CH2][Sn]1([CH2]CCCCCCC)[O]C(=O)c2cccnc2[S]1 | SNB-19 CNS | > 100 µM
Nc1c(C(=O)Nc2cccc(Br)c2)sc2nc3c(cc12)C(=O)CCC3 | SNB-19 CNS | 7.34 µM

The reported GI50 of the molecule COC12C=C/C(=C(/C(=O)OCc3ccncc3)C(=O)CCCCCCCCC3(OC)C=C/C(=C(/C(=O)OCc4ccncc4)C(=O)CCCCCCCC1)O3)O2 was 1.28 µM

The reported GI50 of the molecule COc1ccncc1C#Cc1cncc(C(=O)Nc2ccc(CN3CCN(C)CC3)c(C(F)(F)F)c2)c1 was 47 µM

###

System: SNB-19 CNS
Assay: NCI tumour cell line growth inhibition, 48 h; in the data active means GI50 below about 0.43 µM; inactive means the rest
Outcome (select one): active, inactive

compound | label_value
Cc1csc(Nc2nc(-c3cccc(Br)c3)nc(C(Cl)(Cl)Cl)n2)n1 | inactive
COc1cccc2c1C(=O)c1c(O)c3c(c(O)c1C2=O)CC(O)(/C(C)=N/NC(=O)CCC(=O)N/N=C(\C)C1(O)Cc2c(O)c4c(c(O)c2C(OC2CC(N)C(O)C(C)O2)C1)C(=O)c1c(OC)cccc1C4=O)CC3OC1CC(N)C(O)C(C)O1 (stereo not drawn) | active
COc1cc(C2c3cc4c(cc3C(O)C(CO)C2CO)OCO4)cc(OC)c1OC (stereo not drawn) | inactive
Nc1nccc2c1ccn2-c1ccc(NC(=O)c2ccc(N3CCOCC3)c(C(F)(F)F)c2)cc1 | inactive
CCN(CC)c1nc(-c2ccc(Cl)cc2Cl)nc2ccccc12 | inactive
CC12CCC3C(CCC4=CC(O)CCC43C=O)C1(O)CCC2c1ccc(=O)oc1 (stereo not drawn) | active
Cn1cc(C2=C(c3cn(C)c4cc(C(N)=O)ccc34)C(=O)NC2=O)c2ccccc21 | inactive
COc1ccc(-c2oc(=O)ccc2-c2cc(OC)c(OC)c(OC)c2)cc1F | inactive

Hello, I am checking results. What call was entered for CCN(CC)CCOc1ccc(/C=C2\CC3C4CC=C5C[C@@H](O)CC[C@]5(C)C4CC[C@]3(C)C2=O)cc1OC (stereo partly drawn) ?
inactive

Hello, I am checking results. What call was entered for O=c1cc2oc3cc(O)c(O)cc3c(-c3ccccc3O)c-2cc1O ?
inactive

Hello, I am checking results. What call was entered for CCCn1c(N)c(C(=O)N/N=C(/C)c2cc3cccc(OC)c3o2)sc1=S ?
inactive

Hello, I am checking results. What call was entered for COc1cc(-c2nn(-c3cccc(NC(=O)Nc4ccc(Cl)c(Cl)c4)c3)cc2-c2ccncc2)ccc1Cl ?
inactive

Hello, I am checking results. What call was entered for C=CCCCCCCCCCCC1(O)C=CC2=[N+](CCCCCN=C(N)N)CCCN21 (stereo not drawn) ?
inactive

###

Item-by-item account of GI50
System: T-47D breast
Assay: NCI tumour cell line growth inhibition, 48 h

chemical_smiles | assay_endpoint | measured
CS(=O)(=O)CCCn1c(=O)c(Oc2ccc(F)cc2F)cc2cnc(NC3CCOCC3)nc21 | GI50 | > 25 µM

The reported GI50 of the compound Nc1c(C(=O)Nc2cccc(Br)c2)sc2nc3c(cc12)C(=O)CCC3 was 2.13 µM

The reported GI50 of the compound Cc1csc(Nc2nc(-c3cccc(Br)c3)nc(C(Cl)(Cl)Cl)n2)n1 was 1.38 µM

The reported GI50 of the compound C[C@H]1Oc2cc(cnc2N)-c2c(nn(C)c2C#N)CN(C)C(=O)c2ccc(F)cc21 was 36.2 µM

The reported GI50 of the compound Ic1ccc(-n2nnnc2-c2cnoc2-c2ccccc2)cc1 was 48.8 µM

The reported GI50 of the compound Cn1cnc([N+](=O)[O-])c1S(=O)(=O)Oc1ccccc1 was 2.3 µM

The reported GI50 of the compound COc1cc(-c2nn(-c3cccc(NC(=O)Nc4ccc(Cl)c(Cl)c4)c3)cc2-c2ccncc2)ccc1Cl was 1.42 µM

The reported GI50 of the compound COc1ccc(-c2oc(=O)ccc2-c2cc(OC)c(OC)c(OC)c2)cc1F was 23.9 µM

The reported GI50 of the compound COc1ccncc1C#Cc1cncc(C(=O)Nc2ccc(CN3CCN(C)CC3)c(C(F)(F)F)c2)c1 was 89.1 µM

The reported GI50 of the compound NS(=O)(=O)c1ccc(N(/C=C/C(=O)C(F)(F)F)CC(=O)c2ccc(Cl)cc2)cc1 was 63.6 µM

###

Test system: OVCAR-8 ovarian
Test: NCI tumour cell line growth inhibition, 48 h; in the data active = GI50 below about 0.43 µM; inactive = the rest
Outcome (select one): label 1 for active, label 0 for inactive

compound | label_value
NS(=O)(=O)c1ccc(N(/C=C/C(=O)C(F)(F)F)CC(=O)c2ccc(Cl)cc2)cc1 | label 0
CS(=O)(=O)CCCn1c(=O)c(Oc2ccc(F)cc2F)cc2cnc(NC3CCOCC3)nc21 | label 0
Cn1cnc([N+](=O)[O-])c1S(=O)(=O)Oc1ccccc1 | label 0
CC1(C)OCCn2c1nc1c(N3CCOCC3)nc(-c3cnc(N)nc3)nc12 | label 1
Cc1ccc(/C=C/c2c(C(=O)/C=C/c3ccc(C(F)(F)F)cc3)c(C)nc3ccccc23)cc1 | label 0

Hello, I am checking results. What call was entered for CCCn1c(N)c(C(=O)N/N=C(/C)c2cc3cccc(OC)c3o2)sc1=S ?
label 0

Hello, I am checking results. What call was entered for CCOc1ccc2nc(S/C(=C/C=C(C#N)C#N)c3ccc(C)cc3)sc2c1 ?
label 0

Hello, I am checking results. What call was entered for Nc1nccc2c1ccn2-c1ccc(NC(=O)c2ccc(N3CCOCC3)c(C(F)(F)F)c2)cc1 ?
label 0

Hello, I am checking results. What call was entered for C=CCc1cccc(/C=N/NC(=O)CN2CCN(Cc3ccccc3)CC2)c1O ?
label 0

Hello, I am checking results. What call was entered for C=CCCCCCCCCCCC1(O)C=CC2=[N+](CCCCCN=C(N)N)CCCN21 (stereo unspecified) ?
label 0

Hello, I am checking results. What call was entered for CC(C)=CCc1cc(O)cc2c1OC(C=C(C)C)C1=C2C(=O)C2=C(NCCS2(=O)=O)C1=O (stereo unspecified) ?
label 0
